- System: Rhizopus arrhizus
- Assay name: Antifungal activity against Rhizopus oryzae MTCC 262 assessed as growth inhibition after 48 hr by broth dilution method
- Format: functional
- Stated conditions: MTCC 262, 48 h
Reported endpoint: MIC (µg/mL)

> print(dat)
                                   molecule  reported.endpoint  measured.number
1  COc1cc(/C=C/C(=O)c2cc(C(=O)/C=C/c3cc(OC)c(OC)c(OC)c3)c(O)cc2O)cc(OC)c1OC                MIC               50

P: COC1=CC(=O)C[C@@H](C)[C@]12Oc1c(Cl)c(OC)cc(OC)c1C2=O [GRISEOFULVIN]
Q: O=C(/C=C/c1cccc(Cl)c1)c1cc(C(=O)/C=C/c2cccc(Cl)c2)c(O)cc1O
Form field 'greater MIC' accepts P or Q ; which applies? Answer by quoting the chosen item's label. Q
(Q: 50 µg/mL, P: 6.25 µg/mL)

P: O=C(/C=C/c1ccc(Cl)cc1)c1cc(C(=O)/C=C/c2ccc(Cl)cc2)c(O)cc1O
Q: COc1cccc(-c2cc(=O)c3cc4c(=O)cc(-c5cccc(OC)c5)oc4cc3o2)c1
Form field 'greater MIC' accepts P or Q ; which applies? Answer by quoting the chosen item's label. P

1: COc1cc(-c2cc(=O)c3cc4c(=O)cc(-c5cc(OC)c(OC)c(OC)c5)oc4cc3o2)cc(OC)c1OC
2: O=c1cc(-c2ccc(Cl)cc2)oc2cc3oc(-c4ccc(Cl)cc4)cc(=O)c3cc12
Parameter metric = MIC. Return the lower-valued option from 1 and 2 . Answer by quoting the chosen item's label. 2

###

- System: Rhizopus arrhizus
- Assay name: Antifungal activity against Rhizopus oryzae MTCC 262 assessed as growth inhibition after 48 hr by broth dilution method
- Format: functional
- Stated conditions: MTCC 262, 48 h
Reported endpoint: MIC (µg/mL)

Here's what some known entries look like.
> print(dat)
                               smiles.entry  unit.descriptor  measured.number
1  O=c1cc(-c2cccc(Cl)c2)oc2cc3oc(-c4cccc(Cl)c4)cc(=O)c3cc12            µg/mL               50
2  CN(C)c1ccc(/C=C/C(=O)c2cc(C(=O)/C=C/c3ccc(N(C)C)cc3)c(O)cc2O)cc1            µg/mL               50

a: O=C(/C=C/c1ccco1)c1cc(C(=O)/C=C/c2ccco2)c(O)cc1O
b: COc1cccc(/C=C/C(=O)c2cc(C(=O)/C=C/c3cccc(OC)c3)c(O)cc2O)c1
Form field 'greater MIC' accepts a or b ; which applies? Answer by quoting the chosen item's label. a
(a: 50 µg/mL, b: 25 µg/mL)
